Sourced from patent US20210163443A1

Target: human ProRS (prolyl tRNA synthetase moiety of glutamyl prolyl tRNA synthetase, EPRS) (Homo sapiens, UniProt P07814)
Construct: The prolyl tRNA synthetase moiety (ProRS) in the cDNA of glutamyl prolyl tRNA synthetase was subcloned; 6xHis (N, cleaved yes); made in house; host or cells: E. coli BL21 (DE3)
Sequence (P07814 1007-1512 limits assumed): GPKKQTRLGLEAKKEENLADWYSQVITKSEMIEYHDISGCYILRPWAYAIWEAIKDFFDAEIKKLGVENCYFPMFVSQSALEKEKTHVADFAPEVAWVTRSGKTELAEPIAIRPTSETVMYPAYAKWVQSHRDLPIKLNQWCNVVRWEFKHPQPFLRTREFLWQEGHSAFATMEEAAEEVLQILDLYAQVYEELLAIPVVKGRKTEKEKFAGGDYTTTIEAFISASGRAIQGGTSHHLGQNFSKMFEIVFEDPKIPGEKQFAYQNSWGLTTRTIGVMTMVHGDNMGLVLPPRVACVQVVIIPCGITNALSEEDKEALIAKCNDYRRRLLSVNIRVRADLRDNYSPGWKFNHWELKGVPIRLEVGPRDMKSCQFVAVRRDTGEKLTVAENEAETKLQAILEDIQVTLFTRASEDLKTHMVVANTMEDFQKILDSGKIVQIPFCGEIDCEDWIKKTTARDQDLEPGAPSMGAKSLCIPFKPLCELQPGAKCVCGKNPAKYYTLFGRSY
Experiment: Assay for inhibitors of prolyl tRNA synthetase activity (ProRS assay, labeled proline incorporation)
Format: biochemical
Settings: human ProRS 20 nM, 10 min at 37° C.; read-out: EPRS IC50
Counter-ions that a name gives are not always drawn.
# class assignment by measured IC50: lo (below 20 nM), med (20 nM to below 50 nM), hi (50 nM or more)

Which class is correct for the following compound? CCc1cc(C)c2ncn(C[C@@H](O)C[C@H]3NCCC[C@@H]3O)c(=O)c2c1 [Example 41, hydrochloride]
med

Which class is correct for the following compound? Cc1cc(Cl)cc2c(=O)n(C[C@@H](O)C[C@H]3NCCC[C@@H]3O)cnc12.Cl [Example 30, hydrochloride]
lo

Which class is correct for the following compound? O=C(C[C@H]1NCCC[C@@H]1O)Cn1cnc2cccc(F)c2c1=O [Example 5, hydrochloride]
lo

Which class is correct for the following compound? O=C(C[C@H]1NCCC[C@@H]1O)Cn1cnc2ccc(-c3cccc(Cl)c3)cc2c1=O [Example 17, hydrochloride]
med

Which class is correct for the following compound? Cc1cc(-c2ccn(C)n2)cc2c(=O)n(C[C@@H](O)C[C@H]3NCCC[C@@H]3O)cnc12 [Example 64, hydrochloride]
med

Which class is correct for the following compound? CCc1cc(Br)cc2c(=O)n(CC(=O)C[C@H]3NCCC[C@@H]3O)cnc12 [Example 13, hydrochloride]
lo

Which class is correct for the following compound? COc1cc2ncn(C[C@@H](O)C[C@H]3NCCC[C@@H]3O)c(=O)c2cc1Cl.Cl [Example 33, hydrochloride]
hi

Which class is correct for the following compound? Cc1cc(Cl)cc2c(=O)n(C[C@@H](O)C[C@H]3NCCC[C@@H]3OC(=O)C(C)(C)C)cnc12 [Example 63, hydrochloride]
hi

Which class is correct for the following compound? CCc1cc(C)c2ncn(CC(=O)C[C@H]3NCCC[C@@H]3O)c(=O)c2c1 [Example 6, hydrochloride]
lo

Which class is correct for the following compound? Cc1cc(Cl)cc2c(=O)n(CC(=O)C[C@H]3NCCC[C@@H]3O)cnc12 [Example 1, hydrochloride]
hi

Which class is correct for the following compound? O=C(C[C@H]1NCCC[C@@H]1O)Cn1cnc2cccc(-c3cccc(C(F)(F)F)c3)c2c1=O [Example 26, hydrochloride]
lo

Which class is correct for the following compound? Cc1cc(Br)cc2c(=O)n(C[C@@H](O)C[C@H]3NCCC[C@@H]3O)cnc12 [Example 37, hydrochloride]
hi

Which class is correct for the following compound? Cc1cc(C2CCOCC2)cc2c(=O)n(C[C@@H](O)C[C@H]3NCCC[C@@H]3O)cnc12 [Example 57, hydrochloride]
hi

Which class is correct for the following compound? O=c1c2c(C(F)(F)F)cccc2ncn1C[C@@H](O)C[C@H]1NCCC[C@@H]1O [Example 59, hydrochloride]
hi

====

molecular target: human ProRS (prolyl tRNA synthetase moiety of glutamyl prolyl tRNA synthetase, EPRS) (Homo sapiens, UniProt P07814); construct: The prolyl tRNA synthetase moiety (ProRS) in the cDNA of glutamyl prolyl tRNA synthetase was subcloned; 6xHis (N, cleaved yes); made in house; host or cells: E. coli BL21 (DE3); assay: Assay for inhibitors of prolyl tRNA synthetase activity (ProRS assay, labeled proline incorporation); assay type: biochemical; conditions: human ProRS 20 nM, 10 min at 37° C.; read-out: EPRS IC50
Counter-ions that a name gives are not always drawn.
I'd be grateful if you could share measured IC50 for these entries.
Reply numerically in nM, unit not repeated.

Param item = Cc1cc(C2CCOCC2)cc2c(=O)n(CC(=O)C[C@H]3NCCC[C@@H]3O)cnc12 [Example 23, hydrochloride] ; retrieve measured IC50.
12

Param item = O=c1c2c(-c3cccc(C(F)(F)F)c3)cccc2ncn1C[C@@H](O)C[C@H]1NCCC[C@@H]1O [Example 60, hydrochloride] ; retrieve measured IC50.
38

Param item = Cc1cc(-c2cccnc2)cc2c(=O)n(CC(=O)C[C@H]3NCCC[C@@H]3O)cnc12 [Example 21, dihydrochloride] ; retrieve measured IC50.
8

Param item = O=C(C[C@H]1NCCC[C@@H]1O)Cn1cnc2ccc(-c3cccc(F)c3)cc2c1=O [Example 16, hydrochloride] ; retrieve measured IC50.
10

Param item = Cc1cc(F)cc2c(=O)n(C[C@@H](O)C[C@H]3NCCC[C@@H]3O)cnc12 [Example 34, hydrochloride] ; retrieve measured IC50.
183

Param item = O=c1c2c(-c3cccnc3)cccc2ncn1C[C@@H](O)C[C@H]1NCCC[C@@H]1O [Example 62, dihydrochloride] ; retrieve measured IC50.
53

Param item = Cc1cc(-c2ccc(F)c(F)c2)cc2c(=O)n(CC(=O)C[C@H]3NCCC[C@@H]3O)cnc12 [Example 22, hydrochloride] ; retrieve measured IC50.
15

====

target: human ProRS (prolyl tRNA synthetase moiety of glutamyl prolyl tRNA synthetase, EPRS) (Homo sapiens, UniProt P07814); construct: The prolyl tRNA synthetase moiety (ProRS) in the cDNA of glutamyl prolyl tRNA synthetase was subcloned; 6xHis (N, cleaved yes); made in house; host or cells: E. coli BL21 (DE3); assay: Assay for inhibitors of prolyl tRNA synthetase activity (ProRS assay, labeled proline incorporation); format: biochemical; settings: human ProRS 20 nM, 10 min at 37° C.; read-out: EPRS IC50
Where a name gives a salt, the structure may show the parent alone.
I'd be grateful if you could share measured IC50 for these entries.
Form entry: enter the amount, then its unit.

Param item = CCc1cc(Br)cc2c(=O)n(C[C@@H](O)C[C@H]3NCCC[C@@H]3O)cnc12.Cl [Example 48, hydrochloride] ; retrieve measured IC50.
83 nM

Param item = Cc1ccc(C(F)(F)F)c2c(=O)n(CC(=O)C[C@H]3NCCC[C@@H]3O)cnc12 [Example 29, hydrochloride] ; retrieve measured IC50.
313 nM

Param item = CCc1cc(F)cc2c(=O)n(CC(=O)C[C@H]3NCCC[C@@H]3O)cnc12 [Example 14, hydrochloride] ; retrieve measured IC50.
38 nM

Param item = Cc1cc(-c2cccc(C(F)(F)F)c2)cc2c(=O)n(CC(=O)C[C@H]3NCCC[C@@H]3O)cnc12 [Example 20, hydrochloride] ; retrieve measured IC50.
28 nM

====

Target: human ProRS (prolyl tRNA synthetase moiety of glutamyl prolyl tRNA synthetase, EPRS) (Homo sapiens)
Construct: The prolyl tRNA synthetase moiety (ProRS) in the cDNA of glutamyl prolyl tRNA synthetase was subcloned; 6xHis (N, cleaved yes); made in house; host or cells: E. coli BL21 (DE3)
Sequence (P07814 1007-1512 limits assumed): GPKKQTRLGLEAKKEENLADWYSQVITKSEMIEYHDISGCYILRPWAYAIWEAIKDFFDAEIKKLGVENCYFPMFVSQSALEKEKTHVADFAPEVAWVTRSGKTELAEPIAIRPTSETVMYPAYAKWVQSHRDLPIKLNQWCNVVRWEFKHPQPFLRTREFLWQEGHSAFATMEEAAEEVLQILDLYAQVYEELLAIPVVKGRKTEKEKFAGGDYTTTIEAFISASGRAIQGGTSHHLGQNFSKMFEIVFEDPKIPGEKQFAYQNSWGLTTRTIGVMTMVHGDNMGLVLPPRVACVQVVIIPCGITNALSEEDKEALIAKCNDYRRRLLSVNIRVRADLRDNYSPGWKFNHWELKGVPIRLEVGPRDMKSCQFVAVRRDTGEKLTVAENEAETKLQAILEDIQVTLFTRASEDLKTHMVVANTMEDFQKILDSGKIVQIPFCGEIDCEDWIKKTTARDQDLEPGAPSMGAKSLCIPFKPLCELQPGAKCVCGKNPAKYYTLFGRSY
Assay: Assay for inhibitors of prolyl tRNA synthetase activity (ProRS assay, labeled proline incorporation)
Format: biochemical
Settings: human ProRS 20 nM, 10 min at 37° C.; read-out: EPRS IC50
Structures can show the parent of a compound that is named as a salt.
I'd be grateful if you could share measured IC50 for these entries.
Reply numerically in nM, unit not repeated.

Param item = Cl.O=c1c2c(F)cccc2ncn1C[C@@H](O)C[C@H]1NCCC[C@@H]1O [Example 40, hydrochloride] ; retrieve measured IC50.
302

Param item = Cc1cc(S(C)(=O)=O)cc2c(=O)n(C[C@@H](O)C[C@H]3NCCC[C@@H]3O)cnc12 [Example 43, hydrochloride] ; retrieve measured IC50.
38

Param item = Cc1cc(-c2cccc(C(F)(F)F)c2)cc2c(=O)n(C[C@@H](O)C[C@H]3NCCC[C@@H]3O)cnc12 [Example 54, hydrochloride] ; retrieve measured IC50.
31

Param item = `Cl.[2H]C([2H])([2H])c1cc(Cl)cc2c(=O)n(C[C@@H](O)C[C@H]3NCCC[C@@H]3O)cnc12` ; retrieve measured IC50.
32

Param item = Cc1cc(C2CCNCC2)cc2c(=O)n(C[C@@H](O)C[C@H]3NCCC[C@@H]3O)cnc12 [Example 69, dihydrochloride] ; retrieve measured IC50.
106

Param item = O=c1c2c(C3CC3)cccc2ncn1C[C@@H](O)C[C@H]1NCCC[C@@H]1O [Example 68, hydrochloride] ; retrieve measured IC50.
9
